Molecular target: D(2) dopamine receptor (Homo sapiens)
Sequence (P14416 whole entry): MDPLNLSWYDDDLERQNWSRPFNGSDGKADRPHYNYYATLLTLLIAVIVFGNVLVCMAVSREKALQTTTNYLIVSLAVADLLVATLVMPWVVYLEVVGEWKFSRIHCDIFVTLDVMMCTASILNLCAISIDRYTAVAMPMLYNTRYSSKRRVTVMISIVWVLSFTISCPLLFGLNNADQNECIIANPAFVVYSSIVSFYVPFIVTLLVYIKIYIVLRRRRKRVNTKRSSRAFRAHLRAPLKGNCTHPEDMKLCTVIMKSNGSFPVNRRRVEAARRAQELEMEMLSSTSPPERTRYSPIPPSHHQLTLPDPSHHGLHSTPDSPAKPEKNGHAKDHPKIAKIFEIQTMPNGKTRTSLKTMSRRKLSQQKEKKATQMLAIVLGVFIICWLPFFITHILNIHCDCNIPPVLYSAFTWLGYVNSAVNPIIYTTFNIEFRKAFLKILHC
Test: biochemical
Description: Displacement of [3H]SCH23390 from human cloned dopamine D2 long receptor expressed in CHO cells
So basically, if Ki comes in under 2000 nM it's yes, and if it's 2000 nM or more it's no.

In [3]: df
Out[3]:
                             chemicalsmiles  category
0  Cn1c(N2CCOCC2)nc2c(CN3CCN(c4ccccc4)CC3)c[nH]c2c1=O       yes
1  COc1ccccc1N1CCN(Cc2c(C)nc3cc(C)nc(C)n23)CC1        no
2  Cc1cc2nc(C)c(CN3CCN(c4ccc(Cl)c(Cl)c4)CC3)n2c(C)n1        no
3   Clc1nccc2c(CN3CCN(c4ccccc4)CC3)c[nH]c12        no
4  Cc1cc2nc(C)c(CN3CCN(c4ccc(Cl)cc4)CC3)n2c(C)n1        no
5  COc1ccccc1N1CCN(Cc2cc3c(=O)[nH]c(N(C)C)nc3[nH]2)CC1       yes
6  COc1ccc(N2CCN(Cc3c(C)nc4cc(C)nc(C)n34)CC2)cc1       yes
7  COc1ccccc1N1CCN(Cc2c(C)[nH]c3nc(N(C)C)ncc23)CC1        no
